- Target Entity: human orexin-2 receptor (Homo sapiens (Human), UniProt O43614)
- Sequence (O43614 whole entry): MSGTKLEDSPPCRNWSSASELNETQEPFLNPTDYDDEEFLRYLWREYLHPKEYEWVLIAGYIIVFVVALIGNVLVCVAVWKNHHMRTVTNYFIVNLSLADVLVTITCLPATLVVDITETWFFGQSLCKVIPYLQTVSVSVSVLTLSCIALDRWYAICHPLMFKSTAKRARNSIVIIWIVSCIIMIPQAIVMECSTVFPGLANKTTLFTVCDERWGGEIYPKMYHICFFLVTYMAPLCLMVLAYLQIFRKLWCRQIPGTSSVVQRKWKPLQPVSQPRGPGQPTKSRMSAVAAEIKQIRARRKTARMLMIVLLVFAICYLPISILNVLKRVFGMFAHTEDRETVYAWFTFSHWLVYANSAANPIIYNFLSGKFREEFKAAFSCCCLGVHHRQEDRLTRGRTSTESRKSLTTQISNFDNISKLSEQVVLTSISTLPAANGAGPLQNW
- Assay Comment: In vitro assay: intracellular calcium measurements (FLIPR), antagonistic activity
- Type: cell-based
- Condition: CHO cells expressing human orexin-2 receptor, orexin-A agonist, geometric mean, read-out: IC50 Ox2
Hi all, reminder that labels come from IC50, split as low: < 20 nM; medium: ≥ 20 nM and < 90 nM; high: ≥ 90 nM

- CCn1c([C@]2(C)CCCN2C(=O)c2cc(C)ccc2-n2nccn2)nc2c(C)c(Cl)ccc21: low
- Cc1ccc(-n2nccn2)c(C(=O)N2CCC[C@@]2(C)c2nc3cc(Cl)c(Cl)cc3[nH]2)c1: medium
- Cc1c(Cl)ccc2c1nc([C@]1(C)CCCN1C(=O)c1cc(Cl)ccc1-n1nccn1)n2C: low
- COc1cc2nc([C@@H]3[C@@H](C)CCN3C(=O)c3sc(C)nc3-c3ccc(C)cc3)[nH]c2cc1OC: high
- C=C1C[C@@H](c2nc3cc(Cl)c(C(F)(F)F)cc3[nH]2)N(C(=O)c2ccccc2-n2cccn2)C1: medium

Please let me know in which category the item C=C1CC(c2nc3c(C)c(C)ccc3[nH]2)N(C(=O)c2nc(C3CC3)sc2-c2cccc(C)c2)C1 (racemic) belongs.
low

Please let me know in which category the item C=C1C[C@@H](c2nc3cccc(C)c3[nH]2)N(C(=O)c2nc(C)sc2-c2ccc(F)c(Br)c2)C1 belongs.
low

These data points were gathered from patent US9732075B2.
